Documented apparent KD of MS2 coat protein across a set of sequences
# Tested on: MS2 coat protein
# TEST_SUMMARY: apparent KD of MS2 coat protein; designed switch direction (-1 OFF switch, 1 ON switch): -1; higher = weaker reporter binding
# CONDITION: input ligand: microRNA oligo, concentration not stated
Note: unit nM is implicit; provide only the numeric part.

Answered cases to consult:
{"SEQUENCE_CONTENT": "UUAAUAAUGUAAGGAUAUGCGUGGCGAAGCUAUGCAGAAGGUACAUGAGGAUCACCCAUGUGGUCCGUCUGCGUACAGAUGGAA [JL Eng1 1.08 mod] (Eterna round: R96, puzzle: Exclusion NG 1)", "SCALE_UNIT": "nM", "apparent KD of MS2 coat protein": 319}
{"SEQUENCE_CONTENT": "GUAAAGGGUGUCCUUAAAACAUGAGGAUCACCCAUGUGGACUAAGGAUAUCCAAAAUAAAGAUAAGGAGAAGGUAGUGGAAAGA [Usarqudi] (Eterna round: R96, puzzle: Exclusion NG 3)", "SCALE_UNIT": "nM", "apparent KD of MS2 coat protein": 19.9}
{"SEQUENCE_CONTENT": "UUGUUAUGUGUAGGAUAUGCAUAUUAUUAUUAUGCAGAAGGACAUGAGGAUCACCCAUGUAUAUUAUUAUUAUAUAUUAUAUAU [Title] (Eterna round: R96, puzzle: Exclusion NG 1)", "SCALE_UNIT": "nM", "apparent KD of MS2 coat protein": 21.9}
{"SEQUENCE_CONTENT": "UAUAUAUAGUAAGGAUAUGUAUUAAUUUUAUUAACAGAAGGUACUGACAUGAGGAUCACCCAUGUUUUAGUGUGGGCAUGUAGA [JMF's solution 90] (Eterna round: R96, puzzle: Exclusion NG 1)", "SCALE_UNIT": "nM", "apparent KD of MS2 coat protein": 69.4}
{"SEQUENCE_CONTENT": "UUAAAUCAUGUAGGAUAUGCGUGGGAAAACUAUGCAGAAGGACAUGAGGAUCACCCAUGUGCUUCCGUCUGAGAACAGACGGUA [Mat - Exclusion NG 1 - Mod of JL - D15] (Eterna round: R96, puzzle: Exclusion NG 1)", "SCALE_UNIT": "nM", "apparent KD of MS2 coat protein": 76.1}

Lab book: apparent KD of MS2 coat protein of UUAAUUAGCAGACUAAUACCUCACAUGAGGAUCACCCAUGUGCAGGAUAUCAGCUCGUUUAGAGCUGAGAAGGGCACUGUCUGC [ExNG3/12-A2] (Eterna round: R96, puzzle: Exclusion NG 3) noted as 8.72

Lab book: apparent KD of MS2 coat protein of AACGUACGUCGAGGAUAUGACGAGAAAUAUGAGUCAGAAGGCGACUGGUACAUGAGGAUCACCCAUGUUGCGACCAUGUGGCUU [Eternabot solution 23] (Eterna round: R96, puzzle: Exclusion NG 1) noted as 13.4

Lab book: apparent KD of MS2 coat protein of GCGCCAUCGUGAGAUGGCGUAACUACAUGAGGAUCACCCAUGUAGGAUAUCGAUUGCUUUGCAGUCGAGAAGGGCAUGGUUUGU [JL ENG3 3.86] (Eterna round: R96, puzzle: Exclusion NG 3) noted as 20.2

Lab book: apparent KD of MS2 coat protein of UGCUACAUGAGGAUCACCCAUGUAAUGUGGGAUUCGUUAGGACAGGAUAUGAUUGUAUUGUUUUUUCAGAAGGGUCAUUACUUU [JR_ExcNG3_Sub011] (Eterna round: R96, puzzle: Exclusion NG 3) noted as 34.6
